- STUDY_SYSTEM: THRB (gene 7068)
- PROCEDURE_SUMMARY: TOX21_TRB_COA_Antagonist_Followup_ratio: Tox21 Thyroid Hormone Receptor beta Antagonism through Coactivator Recruitment Follow-Up Assay, Ratio (AID 2283967)
Records with an inconclusive call do not appear. The source made the active and inactive calls. The calls were made as follows: active = hit-call score of the fitted dose curve at least 0.9, where 1 is the maximum; inconclusive = response in the unintended direction; inactive = score below 0.9.
Respond only with the outcome that fits, drawn from active, inactive

- SMILES_STRING: "CCCCCCNC(=O)n1cc(F)c(=O)[nH]c1=O"
  GROUP_LABEL: "inactive"
- SMILES_STRING: "O=C1C(=O)c2ncccc2-c2cccnc21"
  GROUP_LABEL: "inactive"
- SMILES_STRING: "CC(C)=CCC1=C(O)c2ccccc2C(=O)C1=O"
  GROUP_LABEL: "active"
- SMILES_STRING: "CC1(C)N=C(N)N=C(N)N1c1ccc(Cl)cc1"
  GROUP_LABEL: "inactive"
- SMILES_STRING: "CCCC(=O)O[C@]1(C(=O)CCl)[C@@H](C)C[C@H]2[C@@H]3CCC4=CC(=O)C=C[C@]4(C)[C@@]3(F)C(=O)C[C@@]21C"
  GROUP_LABEL: "inactive"
- SMILES_STRING: "CC(=O)[C@H]1CC[C@H]2[C@@H]3C=CC4=CC(=O)CC[C@@]4(C)[C@@H]3CC[C@]12C"
  GROUP_LABEL: "inactive"
- SMILES_STRING: "CCc1cc(Cl)c(OC)c(C(=O)NC[C@@H]2CCCN2CC)c1O"
  GROUP_LABEL: "inactive"

Continue with the compound presented below.
**Q:** Recorded test outcome, item COc1ccc2nc(NC(=O)Nc3ccccc3)sc2c1
**A:** inactive

Reference for the values: PubChem BioAssay (EPA / NIEHS)
